target: T1, recombinant gp120 of HIV-1 strain IIIb (HIV-1 strain IIIb, UniProt P04578 33-511); assay: SPR BIAcore, gp120 on chip
T1 construct: domain: gp120; also called IIIb-derived gp120; gp 120 (IIIB strain)
attributeMeasured: Kd (nM)
Answer in nM, number only, no unit symbol.

[[record]]
binder = "Fab QA4 (Fab, V domains shown) VH: LEQSGAEVKKPGASVKVSCQASGYRFSNFTVHWVRQAPGQRFEWMGWINPYNGNKEFSAKFQDRVTFTADTSANTAYMELRSLRSADTAVYYCARVGEWGWDDSPQDNYYMDVWGKGTTVIVSS VL: ELTQSPGTLSLSPGERATFSCRSSHQLDGSRVAWYQHKPGQAPRLVIHGVSNRASGISDRFSGSGSGTDFTLTITRVEPEDFALYYCQSYGGRDYTFGQGTKLERKR"
readoutvalue = 0.5


With those in mind, consider the next binder.
Entry Fab QA10 (Fab, V domains shown) VH: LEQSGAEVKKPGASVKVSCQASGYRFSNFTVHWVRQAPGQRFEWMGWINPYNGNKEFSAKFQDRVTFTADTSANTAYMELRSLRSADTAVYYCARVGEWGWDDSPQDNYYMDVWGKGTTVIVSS VL: ELTQSPGTLSLSPGERATFSCRSSHQLDGSRVAWYQHKPGQAPRLVIHGVSNRASGISDRFSGSGSGTDFTLTITRVEPEDFALYYCQTYGRGSYTFGQGTKLERKR ; Kd = 0.074
